tgt: canine TRPM8 (Canis lupus familiaris, UniProt Q1A7N1)
Construct: expressed in transfected cells
Sequence (Q1A7N1 1-1104): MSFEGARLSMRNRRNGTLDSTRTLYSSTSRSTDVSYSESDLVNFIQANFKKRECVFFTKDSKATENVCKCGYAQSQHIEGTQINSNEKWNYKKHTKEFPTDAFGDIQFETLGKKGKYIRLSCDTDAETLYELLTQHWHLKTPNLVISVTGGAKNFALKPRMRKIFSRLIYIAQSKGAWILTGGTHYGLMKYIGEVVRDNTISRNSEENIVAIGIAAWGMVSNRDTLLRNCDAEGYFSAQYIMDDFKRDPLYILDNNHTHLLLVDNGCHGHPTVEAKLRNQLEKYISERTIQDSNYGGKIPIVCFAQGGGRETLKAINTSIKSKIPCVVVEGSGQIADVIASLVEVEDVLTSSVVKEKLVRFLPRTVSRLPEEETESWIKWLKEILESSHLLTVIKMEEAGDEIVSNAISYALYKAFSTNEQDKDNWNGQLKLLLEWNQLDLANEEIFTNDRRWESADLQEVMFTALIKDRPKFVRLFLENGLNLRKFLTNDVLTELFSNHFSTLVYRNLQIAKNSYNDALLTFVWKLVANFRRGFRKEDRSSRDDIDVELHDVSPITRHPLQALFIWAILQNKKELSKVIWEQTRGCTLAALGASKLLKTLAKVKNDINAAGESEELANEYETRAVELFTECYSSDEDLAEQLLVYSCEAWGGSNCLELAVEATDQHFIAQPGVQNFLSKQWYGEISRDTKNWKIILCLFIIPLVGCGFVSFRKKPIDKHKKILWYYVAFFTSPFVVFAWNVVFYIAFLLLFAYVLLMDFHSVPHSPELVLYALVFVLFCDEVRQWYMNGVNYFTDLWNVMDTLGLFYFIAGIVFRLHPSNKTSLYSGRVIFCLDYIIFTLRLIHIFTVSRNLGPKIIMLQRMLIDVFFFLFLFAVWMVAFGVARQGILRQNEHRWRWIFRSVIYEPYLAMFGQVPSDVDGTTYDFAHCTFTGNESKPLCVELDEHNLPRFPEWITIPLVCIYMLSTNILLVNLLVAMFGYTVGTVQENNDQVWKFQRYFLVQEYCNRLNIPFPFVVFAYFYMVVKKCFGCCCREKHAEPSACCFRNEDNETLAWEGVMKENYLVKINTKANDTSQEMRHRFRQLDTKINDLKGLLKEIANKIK
assayRemarks: In vitro canine TRPM8 functional assay (icilin-induced intracellular Ca2+ increase, FLIPR/FDSS)
Type: cell-based
particulars: re-test; samples diluted from 10 mM stock with 100% DMSO before addition to assay buffer; Table 7; read-out: IC50
pIC50: −log10 of the molar value.

structureAsSmiles	pIC50
O=S(=O)(N=c1n(Cc2ccc(C(F)(F)F)cc2)c2ccccc2n1CC(F)(F)F)c1ccccc1	6.37
Cn1c(=NS(=O)(=O)c2ccc(C(F)(F)F)cc2)n(Cc2ccc(C(F)(F)F)cc2)c2ccccc21	6.23
Cn1c(=NS(=O)(=O)c2ccc(F)cc2)n(Cc2ccc(C(F)(F)F)c(F)c2)c2ccccc21	6.42
Cn1c(=NS(=O)(=O)c2ccccc2)n(Cc2ccc(OC(F)F)cc2)c2ccccc21	6.12
Cn1c(=NS(=O)(=O)c2ccc(Cl)cc2)n(Cc2ccc(C(F)(F)F)c(F)c2)c2ccccc21	6.29
Cn1c(=NS(=O)(=O)c2ccc(Cl)cc2)n(Cc2ccc(OC(F)(F)F)cc2)c2ccccc21	6.37
Cc1ccc2c(c1)n(C)c(=NS(=O)(=O)c1ccccc1)n2Cc1ccc(OC(F)(F)F)cc1	6.19
Cn1c(=NS(=O)(=O)c2ccc(C(F)(F)F)cc2)n(Cc2ccc(OC(F)(F)F)cc2)c2ccccc21	6.20
Cn1c(=NS(=O)(=O)c2ccc(C(F)(F)F)cc2)n(Cc2ccc(C(F)(F)F)c(F)c2)c2ccccc21	6.12
Cn1c(=NS(=O)(=O)c2ccc(F)cc2)n(Cc2ccc(OC(F)(F)F)cc2)c2ccccc21	6.22

---

tgt: canine TRPM8 (Canis lupus familiaris, UniProt Q1A7N1)
Construct: expressed in transfected cells
assayRemarks: In vitro canine TRPM8 functional assay (icilin-induced intracellular Ca2+ increase, FLIPR/FDSS)
Assay type: cell-based
particulars: 0.2 μM compound; HEK293 canine TRPM8; Table 6

compound	tgt	% Inh @ 0.2 μM
O=S(=O)(N=c1n(Cc2ccc(C(F)(F)F)cc2)c2cccc3c2n1CCC3)c1ccccc1 [Compound 53]	canine TRPM8 (Canis lupus familiaris, UniProt Q1A7N1)	16%
O=S(=O)(N=c1n(Cc2ccc(OC(F)(F)F)cc2)c2ccccc2n1CC(F)(F)F)c1ccccc1 [Compound 44]	canine TRPM8 (Canis lupus familiaris, UniProt Q1A7N1)	37%
Cn1c(=NS(=O)(=O)c2ccccc2)n(Cc2ccccc2)c2ccccc21 [Compound 3]	canine TRPM8 (Canis lupus familiaris, UniProt Q1A7N1)	8%
CC(C)Cn1c(=NS(=O)(=O)c2ccccc2)n(Cc2ccc(C(F)(F)F)cc2)c2ccccc21 [Compound 27]	canine TRPM8 (Canis lupus familiaris, UniProt Q1A7N1)	71%
Cc1cc2c(cc1C)n(Cc1ccc(C(F)(F)F)c(F)c1)c(=NS(=O)(=O)c1ccccc1)n2C [Compound 61]	canine TRPM8 (Canis lupus familiaris, UniProt Q1A7N1)	14%
Cn1c(=NS(=O)(=O)c2ccccc2)n(Cc2ccc(C(F)(F)F)cc2)c2ccc(C(F)(F)F)cc21 [Compound 59]	canine TRPM8 (Canis lupus familiaris, UniProt Q1A7N1)	20%
CC(C)n1c(=NS(=O)(=O)c2ccccc2)n(Cc2ccc(C(F)(F)F)c(F)c2)c2cc(C(F)(F)F)ccc21 [Compound 35]	canine TRPM8 (Canis lupus familiaris, UniProt Q1A7N1)	100%

---

tgt: canine TRPM8 (Canis lupus familiaris)
Construct: expressed in transfected cells
assayRemarks: In vitro canine TRPM8 functional assay (icilin-induced intracellular Ca2+ increase, FLIPR/FDSS)
Type: cell-based
particulars: 0.2 μM compound; HEK293 canine TRPM8; Table 6
Structures can show the parent of a compound that is named as a salt.

compound	inhibition at 0.2 µM [%]
O=S(=O)(/N=c1\n(Cc2ccc(C(F)(F)F)cc2)c2cccc3c2n1CCO3)c1ccccc1 [Compound 63, TFA salt]	34
CC(C)Cn1c(=NS(=O)(=O)c2ccccc2)n(Cc2ccc(C(F)(F)F)c(F)c2)c2ccccc21	100
Cn1c(=NS(=O)(=O)c2ccccc2)n(Cc2ccc(C(F)(F)F)c(F)c2)c2cc(C(F)(F)F)ccc21	71
CC(C)n1c(=NS(=O)(=O)c2ccccc2)n(Cc2ccc(OC(F)(F)F)cc2)c2cc(C(F)(F)F)ccc21	95
CCn1c(=NS(=O)(=O)c2ccccc2)n(Cc2ccc(C(F)(F)F)c(F)c2)c2cc(C(F)(F)F)ccc21	93

---

tgt: canine TRPM8 (Canis lupus familiaris)
Construct: expressed in transfected cells
assayRemarks: In vitro canine TRPM8 functional assay (icilin-induced intracellular Ca2+ increase, FLIPR/FDSS)
Type: cell-based
particulars: 1 μM compound; re-test; samples diluted from 10 mM stock with 100% DMSO; Table 7
Text: The functional activity of representative compounds of the formula (I) of the present invention was quantified by measuring changes in intracellular calcium concentration using a Ca^2+-sensitive fluorescent dye. The changes in fluorescent signal were monitored by a fluorescence plate reader, either a FLIPR™ (Molecular Devices) or FDSS (Hamamatsu). […]
Recorded % Inh @ 1 μM values for a group of compounds are listed next.

compound	% Inh @ 1 μM (%)
Cn1c(=NS(=O)(=O)c2ccccc2)n(Cc2ccc(C(F)(F)F)cc2)c2ccccc21 [Compound 6]	65
Cc1cc2c(cc1C)n(Cc1ccc(OC(F)(F)F)cc1)c(=NS(=O)(=O)c1ccccc1)n2C [Compound 60]	48
Cn1c(=NS(=O)(=O)c2ccc(Cl)cc2)n(Cc2ccc(C(F)(F)F)c(F)c2)c2ccccc21 [Compound 22]	77
Cc1ccc2c(c1)n(C)c(=NS(=O)(=O)c1ccccc1)n2Cc1ccc(C(F)(F)F)cc1 [Compound 56]	40

---

tgt: canine TRPM8 (Canis lupus familiaris, UniProt Q1A7N1)
Construct: expressed in transfected cells
assayRemarks: In vitro canine TRPM8 functional assay (icilin-induced intracellular Ca2+ increase, FLIPR/FDSS)
Assay type: cell-based
particulars: 0.2 μM compound; HEK293 canine TRPM8; Table 6
Recorded % Inh @ 0.2 μM values for a group of compounds are listed next.
measurementLabel: % Inh @ 0.2 μM (%)

structureAsSmiles	quantitativeResult
CCn1c(=NS(=O)(=O)c2ccccc2)n(Cc2ccc(C(F)(F)F)cc2)c2ccccc21	85
O=S(=O)(N=c1n(Cc2ccc(OC(F)(F)F)cc2)c2ccccc2n1CC1CC1)c1ccccc1	67
Cn1c(=NS(=O)(=O)c2ccccc2)n(Cc2ccc(F)c(F)c2)c2ccccc21	24
Cn1c(=NS(=O)(=O)c2ccc(F)cc2)n(Cc2ccc(C(F)(F)F)c(F)c2)c2ccccc21	3
Cn1c(=NS(=O)(=O)c2ccc(Cl)cc2)n(Cc2ccc(C(F)(F)F)cc2)c2ccccc21	13
CCn1c(=NS(=O)(=O)c2ccccc2)n(Cc2ccc(C(F)(F)F)c(F)c2)c2ccccc21	62
Cn1c(=NS(=O)(=O)c2ccc(Cl)cc2)n(Cc2ccc(C(F)(F)F)c(F)c2)c2ccccc21	6
O=S(=O)(N=c1n(Cc2ccc(C(F)(F)F)c(F)c2)c2cccc3c2n1CCC3)c1ccccc1	14

---

tgt: canine TRPM8 (Canis lupus familiaris)
Construct: expressed in transfected cells
assayRemarks: In vitro canine TRPM8 functional assay (icilin-induced intracellular Ca2+ increase, FLIPR/FDSS)
Type: cell-based
particulars: 0.2 μM compound; HEK293 canine TRPM8; Table 6

structureAsSmiles	tgt	inhibition at 0.2 µM / %
Cn1c(=NS(=O)(=O)c2ccc(Cl)cc2)n(Cc2ccc(OC(F)(F)F)cc2)c2ccccc21	canine TRPM8 (Canis lupus familiaris)	2
Cn1c(=NS(=O)(=O)c2ccc(C(F)(F)F)cc2)n(Cc2ccc(C(F)(F)F)c(F)c2)c2ccccc21	canine TRPM8 (Canis lupus familiaris)	3
Cn1c(=NS(=O)(=O)c2ccc(C(F)(F)F)cc2)n(Cc2ccc(C(F)(F)F)cc2)c2ccccc21	canine TRPM8 (Canis lupus familiaris)	8
Cn1c(=NS(=O)(=O)c2ccccc2)n(Cc2ccc(OC(F)F)cc2)c2ccccc21	canine TRPM8 (Canis lupus familiaris)	9
Cc1ccc2c(c1)n(C)/c(=N/S(=O)(=O)c1ccccc1)n2Cc1ccc(C(F)(F)F)c(F)c1	canine TRPM8 (Canis lupus familiaris)	18
O=S(=O)(N=c1n(Cc2ccc(C(F)(F)F)cc2)c2ccccc2n1CC(F)(F)F)c1ccccc1	canine TRPM8 (Canis lupus familiaris)	9
Cn1c(=NS(=O)(=O)c2ccc(F)cc2)n(Cc2ccc(OC(F)(F)F)cc2)c2ccccc21	canine TRPM8 (Canis lupus familiaris)	6
Cn1c(=NS(=O)(=O)c2ccc(C(F)(F)F)cc2)n(Cc2ccc(OC(F)(F)F)cc2)c2ccccc21	canine TRPM8 (Canis lupus familiaris)	1
Cn1/c(=N/S(=O)(=O)c2ccccc2)n(Cc2cccc(C(F)(F)F)c2)c2ccccc21	canine TRPM8 (Canis lupus familiaris)	42
CCn1/c(=N/S(=O)(=O)c2ccccc2)n(Cc2ccc(C(F)(F)F)cc2)c2cc(F)ccc21	canine TRPM8 (Canis lupus familiaris)	26

---

tgt: canine TRPM8 (Canis lupus familiaris, UniProt Q1A7N1)
Construct: expressed in transfected cells
assayRemarks: In vitro canine TRPM8 functional assay (icilin-induced intracellular Ca2+ increase, FLIPR/FDSS)
Format: cell-based
particulars: HEK293 cells stably expressing canine TRPM8; icilin at ~80% maximal response; Table 6; read-out: IC50
pIC50: −log10 of the molar value.
measurementLabel: pIC50

structureAsSmiles	tgt	quantitativeResult
CC(C)Cn1c(=NS(=O)(=O)c2ccccc2)n(Cc2ccc(C(F)(F)F)c(F)c2)c2ccccc21	canine TRPM8 (Canis lupus familiaris, UniProt Q1A7N1)	7.85
O=S(=O)(N=c1n(Cc2ccc(C(F)(F)F)cc2)c2ccccc2n1CC1CC1)c1ccccc1	canine TRPM8 (Canis lupus familiaris, UniProt Q1A7N1)	6.96
CC(C)n1c(=NS(=O)(=O)c2ccccc2)n(Cc2ccc(C(F)(F)F)c(F)c2)c2cc(Cl)ccc21	canine TRPM8 (Canis lupus familiaris, UniProt Q1A7N1)	7.59
CC(C)Cn1c(=NS(=O)(=O)c2ccccc2)n(Cc2ccc(C(F)(F)F)cc2)c2ccccc21	canine TRPM8 (Canis lupus familiaris, UniProt Q1A7N1)	7.37
O=S(=O)(/N=c1\n(Cc2ccc(C(F)(F)F)c(F)c2)c2ccccc2n1CC1CC1)c1ccccc1	canine TRPM8 (Canis lupus familiaris, UniProt Q1A7N1)	7.07
Cn1c(=NS(=O)(=O)c2ccccc2)n(Cc2ccc(C(F)(F)F)c(F)c2)c2cc(C(F)(F)F)ccc21	canine TRPM8 (Canis lupus familiaris, UniProt Q1A7N1)	7.41
CCn1c(=NS(=O)(=O)c2ccccc2)n(Cc2ccc(OC(F)(F)F)cc2)c2ccccc21	canine TRPM8 (Canis lupus familiaris, UniProt Q1A7N1)	7.00
